- Test system: prolactine level
- Assay procedure: Test 10: decrease of prolactine level in ovariectomised rats
- Type: in vivo
- Details: Rattus norvegicus, 96 h, after 4 days treatment with oestradiol 0.073 umole/kg, read-out: Dose which induces a significant decrease of the prolactine level (Test 10)
minimal effective dose overview
Write the value in µmol/kg as a bare number.

Consider the following illustrative entries.
molecule="CCOC(=O)Nc1cccc2c1CN(C)CC2c1ccc(Cl)cc1 (stereo not shown) [Compound I]" assay_system="prolactine level" value_type="minimal effective dose" quantity_unit=µmol/kg value_measured=26
molecule="CN1Cc2c(N)cccc2C(c2ccccc2)C1 (stereo not shown) [Nomifensine, reference compound]" assay_system="prolactine level" value_type="minimal effective dose" quantity_unit=µmol/kg value_measured=28
molecule="CCCCNC(=O)Nc1cccc2c1CN(C)CC2c1ccc(C)cc1 (stereo not shown) [Compound F]" assay_system="prolactine level" value_type="minimal effective dose" quantity_unit=µmol/kg value_measured=107

Now let's try a different one.
Per the records, this molecule ( CCCCNC(=O)Nc1cccc2c1CN(C)CC2c1ccc(Cl)cc1 (stereo not shown) [Compound E] ) has minimal effective dose equal to 143

====

- System: catalepsy induced by tetrabenazine
- Assay procedure: Test 4: inhibition of tetrabenazine-induced catalepsy
- Format: in vivo
- Details: Mus musculus, sc, read-out: ED, s.c. dose which inhibits the catalepsy induced by tetrabenazine in 50% of the mice (Test 4)
Structures can show the parent of a compound that is named as a salt.
Threshold 90 µmol/kg: ED50 strictly smaller gives Fulfilled, otherwise Not fulfilled.

compound="CCCCNCC(=O)Nc1cccc2c1CN(C)CC2c1ccc(C)cc1 (stereo not shown)" label_value=Fulfilled

Hello, I'm reviewing records and need to know if ED50 of CCNCC(=O)Nc1cccc2c1CN(C)CC2c1ccc(C)cc1 (stereo not shown) [Compound H, maleate] is below 90 µmol/kg. Could you check?
Not fulfilled

Quick check: does CN1Cc2c(N)cccc2C(c2ccccc2)C1 (stereo not shown) [Nomifensine, reference compound] have ED50 under 90 µmol/kg?
Fulfilled

Quick check: ED50 of CCOC(=O)Nc1cccc2c1CN(C)CC2c1ccc(Cl)cc1 (stereo not shown) under 90 µmol/kg?
Fulfilled

Please check: ED50 for CCCCNC(=O)Nc1cccc2c1CN(C)CC2c1ccc(C)cc1 (stereo not shown) , strictly under 90 µmol/kg or not?
Not fulfilled

Consider the compound CCNCC(=O)Nc1cccc2c1CN(C)CC2c1ccc(Cl)cc1 (stereo not shown) . Is its ED50 strictly less than 90 µmol/kg?
Fulfilled

====

- Test system: spontaneous motility
- Assay procedure: Test 3: spontaneous motility
- Format: in vivo
- Details: Mus musculus, ip, read-out: ED, lowest i.p. dose which still decreases the spontaneous motility (Test 3, -)
Structures can show the parent of a compound that is named as a salt.
Label yes for high-side minimal effective dose (at or above 30 µmol/kg) and no for low-side minimal effective dose (below it).

Consider the worked cases shown below.
compound="CCCCNC(=O)Nc1cccc2c1CN(C)CC2c1ccc(Cl)cc1 (stereo not drawn) [Compound E]" label_value=yes
compound="CCCCNC(=O)Nc1cccc2c1CN(C)CC2c1ccc(C)cc1 (stereo not drawn) [Compound F]" label_value=yes
compound="CCNCC(=O)Nc1cccc2c1CN(C)CC2c1ccc(C)cc1 (stereo not drawn) [Compound H, maleate]" label_value=no
compound="CCCCNCC(=O)Nc1cccc2c1CN(C)CC2c1ccc(C)cc1 (stereo not drawn) [Compound G]" label_value=no
compound="CCOC(=O)Nc1cccc2c1CN(C)CC2c1ccc(Cl)cc1 (stereo not drawn) [Compound I]" label_value=no

Please find the next compound below.
Item CCNCC(=O)Nc1cccc2c1CN(C)CC2c1ccc(Cl)cc1 (stereo not drawn) [Compound C] with minimal effective dose of 30 µmol/kg or above?
yes

src = patent US4537895A
